Where do the numbers come from? From ChEMBL document CHEMBL4513216.

For each record, write down the corresponding cytotoxicity at 10 µM.
Assay: Toxicity liver stage against HepG2, at 10uM
Type: cell-based
Parameters: test concentration 10 uM, cell line HepG2-A16-CD81EGFP
Conditions: human, HepG2-A16-CD81EGFP cells; read-out: INHIBITION
Answers are plain numbers, in %.

// worked examples, cytotoxicity at 10 µM included
C=C(C)CN(CC)Cc1nc(CC)no1	12.6
Cc1cc(C)c(CNC(=O)NCC(O)c2ccccc2F)c(=O)[nH]1 (centres undefined)	-0.185
O=C(N[C@@H]1CN(Cc2ccco2)[C@@H]2CCCO[C@@H]21)c1cscn1	-105
CCSc1nnc(N(CCC#N)CCC#N)s1	4.91
O=C(NCCOc1ccc(F)cc1)C1CCCN(C(=O)C2CC2)C1 (centres undefined)	0.856
Cc1ccc(-c2nc(CC3CCN(C)CC3)no2)cc1N1CCNC1=O	-11.8
COCCN(C)C[C@@H]1CN(C(=O)c2ccc(OC)c(F)c2)C[C@@H]1CO	2.87
CNC(=O)C1(c2cnccn2)CCCN1C(=O)c1ncccc1C (centres undefined)	4.22

Look at each molecule and report its cytotoxicity at 10 µM.
1. COCCOc1ccccc1C(=O)NCCN(C)C(C)C
2. Cn1ncc2c(N3CCN(CCC(N)=O)CC3)nc(C3CCCC3)nc21
3. Cc1cc(NC(=O)CNCc2csc(-c3ncccn3)n2)ccc1Cl
4. CCN(C(=O)CN1CCC(c2n[nH]c(C3CC3)n2)CC1)C1CC1
5. CCCC(=O)NCC(Cc1cccc(F)c1)N1CCCC1=O (centres undefined)

Output:
0.449
-2.45
-7.21
-2.07
-2.91

Task: What does the record list as cytotoxicity at 10 µM for CNC(=O)c1ccc(C2CN(Cc3ccc(F)cc3)CCO2)nc1 (centres undefined) ?
Output: -0.378
